The reported measurements were obtained from patent US5840684A.

Recorded measurements of MIC, one per entry
- Test system: Staphylococcus aureus SA1199B
- Format: cell-based
Reply numerically in µg/mL, unit not repeated.

>  <compound>
CCc1ccc(-c2ccc(CNC3(C)CC(OC4C(Oc5c6cc7cc5Oc5ccc(cc5Cl)C(OC5CC(C)(N)C(O)C(C)O5)C5NC(=O)C(NC(=O)C7NC(=O)C(CC(N)=O)NC(=O)C(NC(=O)C(CC(C)C)NC)C(O)c7ccc(c(Cl)c7)O6)c6ccc(O)c(c6)-c6c(O)cc(O)cc6C(C(=O)O)NC5=O)OC(CO)C(O)C4O)OC(C)C3O)cc2)cc1 (centres unmarked)

>  <system-under-test>
Staphylococcus aureus SA1199B

>  <MIC / µg/mL>
1

$$$$

Switching to the query record.
The compound CNC(CC(C)C)C(=O)NC1C(=O)NC(CC(N)=O)C(=O)NC2C(=O)NC3C(=O)NC(C(=O)NC(C(=O)O)c4cc(O)cc(O)c4-c4cc3ccc4O)C(OC3CC(C)(N)C(O)C(C)O3)c3ccc(c(Cl)c3)Oc3cc2cc(c3OC2OC(CO)C(O)C(O)C2OC2CC(C)(NCc3cncc(-c4ccccc4)c3)C(O)C(C)O2)Oc2ccc(cc2Cl)C1O (centres unmarked) [Compound 101] showed MIC equal to 1
